Target: Sfβgly (GH1 β-glucosidase from Spodoptera frugiperda) (Spodoptera frugiperda, UniProt O61594)
Construct: recombinant, E. coli BL21(DE3), vector pET46, Ni-NTA purified; secreted digestive midgut enzyme; catalytic residues E187 and E399
Sequence (O61594 21-509): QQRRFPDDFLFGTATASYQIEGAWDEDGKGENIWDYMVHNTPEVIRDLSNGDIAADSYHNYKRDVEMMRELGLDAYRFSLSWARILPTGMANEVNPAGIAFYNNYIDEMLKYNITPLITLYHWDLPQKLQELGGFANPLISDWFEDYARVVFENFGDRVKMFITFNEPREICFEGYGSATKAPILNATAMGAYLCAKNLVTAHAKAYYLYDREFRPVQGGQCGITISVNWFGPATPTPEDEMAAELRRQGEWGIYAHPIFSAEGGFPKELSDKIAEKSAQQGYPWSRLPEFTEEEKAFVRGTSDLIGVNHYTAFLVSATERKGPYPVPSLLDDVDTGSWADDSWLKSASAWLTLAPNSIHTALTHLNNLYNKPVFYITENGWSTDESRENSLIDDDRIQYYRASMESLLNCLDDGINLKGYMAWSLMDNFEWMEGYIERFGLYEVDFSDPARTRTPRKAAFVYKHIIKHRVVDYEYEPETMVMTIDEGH
Test: initial-rate kinetics, Lineweaver-Burk plots, p-nitrophenolate release
Format: biochemical
Conditions: competitive; also a substrate; substrate p-nitrophenyl β-glucoside; 100 mM phosphate pH 6.0, 30 °C
REPORTED_METRIC: Ki (mM)

COMPOUND: OC[C@H]1O[C@@H](O[C@H]2[C@H](O)[C@@H](O)C(O)O[C@@H]2CO)[C@H](O)[C@@H](O)[C@@H]1O (stereo partly shown) [C2, cellobiose]
QUANTITY_UNIT: mM
VALUE: 10

Data origin, for the record: paper PMC10153361
